B1: FBXO3 (parent)
chain: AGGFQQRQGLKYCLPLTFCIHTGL

Variants of: B1
Assay: protein stability index of a GFP-peptide fusion (GPS, HEK-293T) (PSI 1-6); higher = more stable;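 note: lentivirally expressed fusions sorted by FACS into six bins by GFP to DsRed ratio, PSI derived from sequencing read proportions per bin multiplied by bin number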
Details: c terminus: a fixed tail appended
observation type: protein stability index
# output: bare number, no unit

What the record says about AGGFQSRQGLKYCLPLTFCIHTGL : protein stability index is 2.81

// field: protein stability index; key: AGRFQQRQGLKYCLPLTFCIHTGL ; value = 3.24

In plain terms, AGGFQQRQGLKYCLPLRFCIHTGL has a documented protein stability index of 2.87

Measured protein stability index, AGGFQQRQGLKYCAPLTFCIHTGL : 2.7

Notebook: FGGFQQRQGLKYCLPLTFCIHTGL , protein stability index read as 3.41

Please fill in: protein stability index reported for AGGFQQRQGLKYCLPLTFCIHWGL = 2.86

The reported value for AYGFQQRQGLKYCLPLTFCIHTGL in terms of protein stability index is 2.4

Lab note: measured protein stability index of AGGFQQRQGLKYCLPLTVCIHTGL was 4.06

// AGGFQQRQGLKYCLPLTFLIHTGL : protein stability index value = 2.86

AGGFQQRQKLKYCLPLTFCIHTGL yielded protein stability index of 2.74

Input AGYFQQRQGLKYCLPLTFCIHTGL . Output protein stability index: 3.02

Measured protein stability index, AGGFQRRQGLKYCLPLTFCIHTGL : 2.77

protein stability index reported for this variant AGGFQQRQGLKYCLPETFCIHTGL : 2.03

# protein stability index (variant: AGGFQQRQGLKYCLPLEFCIHTGL ) is 4.01

Reported protein stability index for AGGFQQRQELKYCLPLTFCIHTGL was 1.87

protein stability index recorded for this variant, AGGFQQRQGLKYCLPLTFCIHAGL , is 1.86

Recorded result, VGGFQQRQGLKYCLPLTFCIHTGL , protein stability index: 2.89

Lab note: AGGFQQRQGLKYCLPLTDCIHTGL gave protein stability index of 1.67

Lookup result for TGGFQQRQGLKYCLPLTFCIHTGL ; measured protein stability index: 3.47

Per the record, AGGFQQRQGLKYFLPLTFCIHTGL has protein stability index of 2.94

# protein stability index of AIGFQQRQGLKYCLPLTFCIHTGL = 4.2

Consider AGGFQVRQGLKYCLPLTFCIHTGL . Its measured protein stability index is 2.68
